# Species on record: Rattus norvegicus
# TEST DETAILS: Inhibition of rat recombinant Rab geranylgeranyltransferase at 100 uM in presence of canine Rab7 and rat REP1 NBD-FPP based continuous fluorimetric assay
Peptide text beside a SMILES is read from it. * marks the point of attachment. Hydrocinnamoyl = O=C(CCc1ccccc1)*; Undecanoyl = CCCCCCCCCCC(=O)*
RECORDED METRIC: inhibition (%)

[[record]]
compound = "NC(=O)[C@H](Cc1ccc(O)cc1)NC(=O)CCNC(=O)[C@H](Cc1c[nH]cn1)NC(=O)OCc1ccccc1"
quantity_unit = "%"
result_number = 89

[[record]]
compound = "CCCCCCCCCCC(=O)N[C@@H](Cc1c[nH]cn1)C(=O)N[C@@H](Cc1c[nH]cn1)C(=O)N[C@@H](Cc1ccc(O)cc1)C(=O)NCCc1ccccn1"
quantity_unit = "%"
result_number = 80

[[record]]
compound = "COC(=O)[C@H](CO)NC(=O)[C@H](Cc1ccccc1)NC(=O)[C@H](CO)NC(=O)CCc1ccccc1 (Hydrocinnamoyl-Ser-Phe-Ser-OMe)"
quantity_unit = "%"
result_number = 90

[[record]]
compound = "CC[C@H](C)[C@H](NC(=O)c1ccc(-c2ccccc2)cc1)C(=O)N[C@@H](C(=O)N[C@@H](CCC(N)=O)C(=O)OCCc1scnc1C)C(C)C"
quantity_unit = "%"
result_number = 86

[[record]]
compound = "CCC/C=C/c1cccc(/C=C/C(=O)N[C@H](Cc2cnc[nH]2)C(=O)N[C@@H](Cc2ccc(O)cc2)C(=O)N[C@@H](Cc2ccccc2)C(=O)O)c1"
quantity_unit = "%"
result_number = 59

[[record]]
compound = "CC(C)(C)Oc1ccc(C[C@H](NC(=O)c2coc(-c3ccccc3)n2)C(=O)NCC(=O)N[C@@H](Cc2ccccc2)C(=O)O)cc1"
quantity_unit = "%"
result_number = 82

[[record]]
compound = "O=C(N[C@@H](Cc1ccc(O)cc1)C(=O)N[C@@H](Cc1ccc(O)cc1)C(=O)N[C@@H](Cc1ccc(O)cc1)C(=O)O)OCc1ccccc1"
quantity_unit = "%"
result_number = 51

[[record]]
compound = "CCCCCCCCCCC(=O)N[C@@H](Cc1ccc(O)cc1)C(=O)N[C@@H](Cc1c[nH]cn1)C(=O)N[C@@H](Cc1ccc(O)cc1)C(N)=O (Undecanoyl-Tyr-His-Tyr-NH2)"
quantity_unit = "%"
result_number = 83

[[record]]
compound = "O=C(CCc1ccccc1)N[C@@H](CO)C(=O)N[C@@H](Cc1ccccc1)C(=O)N[C@@H](CO)C(=O)Nc1ccc(F)cc1F"
quantity_unit = "%"
result_number = 96

[[record]]
compound = "C=CCCCCCCCCCOC(=O)[C@H](CO)NC(=O)CNC(=O)[C@H](Cc1ccccc1)NC(=O)c1coc(-c2ccccc2)n1"
quantity_unit = "%"
result_number = 5

[[record]]
compound = "CCCCCCCCCCCCCC(=O)OC[C@H](NC(=O)CNC(=O)[C@H](Cc1ccccc1)NC(=O)c1coc(-c2ccccc2)n1)C(=O)O"
quantity_unit = "%"
result_number = 38

[[record]]
compound = "CCCCCCCCCCCOc1ccc(C(=O)N[C@@H](Cc2ccc(O)cc2)C(=O)N[C@@H](Cc2ccc(O)cc2)C(=O)N[C@@H](Cc2ccc(O)cc2)C(N)=O)cc1"
quantity_unit = "%"
result_number = 103

[[record]]
compound = "C=CCCCCCCCCCOC(=O)[C@H](CO)NC(=O)[C@H](Cc1ccccc1)NC(=O)[C@H](CO)NC(=O)/C=C/c1ccc(F)cc1"
quantity_unit = "%"
result_number = 87


Reference for the values: ChEMBL document CHEMBL1153722
